In this section, each of the molecules is paired with its reported CLi human.
- assay.explanation: Intrinsic clearance (CLi), human
- Assay type: in vitro ADME
- details: 0.5 mg/mL microsomes, 2 μM test article, 2 mM NADPH, 37° C.
experimental.readout: CLi human (µL/min/mg)

INSERT INTO measurements (molecule, recorded_measurement) VALUES
  ('Cc1c(C(F)(F)F)nn(-c2ccc(CN3CCCC3=O)cc2)c1C(C)O (stereo not shown)', 31.1),
  ('CC(C)c1c(CO)c(C(F)(F)F)nn1-c1ccc(CN2CCCC2=O)cc1', 7.9),
  ('Cc1c(Cl)c(C(F)(F)F)nn1-c1ccc(CN2CCCC2=O)cc1 [Comparative Example, reference compound]', 71),
  ('COCc1c(C)c(C(F)(F)F)nn1-c1ccc(CN2CCCC2=O)cc1', 47.4),
  ('Cc1c(C(F)(F)F)nn(-c2ccc(CN3CCCC3=O)cc2)c1C#N', 6.2),
  ('Cc1c(CO)c(C(F)(F)F)nn1-c1ccc(CN2CCCC2=O)cc1', 4.3),
  ('CCc1c(CO)c(C(F)(F)F)nn1-c1ccc(CN2CCCC2=O)cc1', 2.6);

---

In this section, each of the compounds is paired with its reported CLi Rat.
- assay.explanation: Intrinsic clearance (CLi), rat
- Assay type: in vitro ADME
- details: 0.5 mg/mL microsomes, 2 μM test article, 2 mM NADPH, 37° C.
experimental.readout: CLi Rat (µL/min/mg)

INSERT INTO assay_data (compound, recorded_measurement) VALUES
  ('CC(C)c1c(CO)c(C(F)(F)F)nn1-c1ccc(CN2CCCC2=O)cc1', 2.2),
  ('CCc1c(CO)c(C(F)(F)F)nn1-c1ccc(CN2CCCC2=O)cc1', 3.7),
  ('Cc1c(C(F)(F)F)nn(-c2ccc(CN3CCCC3=O)cc2)c1C#N', 70.2),
  ('Cc1c(Cl)c(C(F)(F)F)nn1-c1ccc(CN2CCCC2=O)cc1 [Comparative Example, reference compound]', 878);

---

- assay.explanation: Intrinsic clearance (CLi), rat
- Assay type: in vitro ADME
- details: 0.5 mg/mL microsomes, 2 μM test article, 2 mM NADPH, 37° C.
- Description: For example, compounds of the invention preferably have a CLi of less than 100 μL/min/mg in rat and human microsomes. The CLi can be measured using known methods, such as those illustrated in the Examples. The in-vitro intrinsic clearance of the compounds was measured in rat and human […] using the following assay. […]
experimental.readout: CLi Rat (µL/min/mg)

INSERT INTO assay_data (compound, experimental_readout, recorded_measurement) VALUES
  ('Cc1c(CO)c(C(F)(F)F)nn1-c1ccc(CN2CCCC2=O)cc1', 'CLi Rat', 8.4),
  ('Cc1c(C(F)(F)F)nn(-c2ccc(CN3CCCC3=O)cc2)c1C(C)O (stereo not drawn)', 'CLi Rat', 37.7),
  ('COCc1c(C)c(C(F)(F)F)nn1-c1ccc(CN2CCCC2=O)cc1', 'CLi Rat', 87.4);
